- procedure-details: Cytotoxicity against human RPTEC cells assessed as inhibition of cell growth incubated for 24 hrs by MTT assay
- Format: toxicity, cell-based

compound: COc1cccc2c1C(=O)c1c(O)c3c(c(O)c1C2=O)C[C@@](O)(C(=O)CO)C[C@@H]3O[C@H]1C[C@H](N)[C@H](O)[C@H](C)O1 [DOXORUBICIN]
IC50 at 24 h: 12.5 µM

---

Listed molecules paired with reported inhibition of growth at 10 µM
- Test system: CAKI-1
- procedure-details: Cytotoxicity against human CAKI-1 cells assessed as growth inhibition at 10 uM relative to control
- Type: functional
- protocol-conditions: read-out: GI
test-readout: inhibition of growth at 10 µM

mol-smiles: Cc1ccc2[nH]c(=S)n(-c3ccc(S(=O)(=O)Nc4ccc(Cl)nn4)cc3)c(=O)c2c1
recorded-result: 10%

mol-smiles: O=c1c2ccccc2[nH]c(=S)n1-c1ccc(S(=O)(=O)Nc2ccc(Cl)nn2)cc1
recorded-result: 10%

mol-smiles: O=c1c2cc(Cl)cc(Cl)c2[nH]c(=S)n1-c1ccc(S(=O)(=O)Nc2ccc(Cl)nn2)cc1
recorded-result: 11%

mol-smiles: O=C(CSc1nc2ccccc2c(=O)n1Cc1ccccc1)Nc1ccc(S(=O)(=O)Nc2ccc(Cl)nn2)cc1
recorded-result: 13%

mol-smiles: CCCCn1c(SCC(=O)Nc2ccc(S(=O)(=O)Nc3ccc(Cl)nn3)cc2)nc2ccccc2c1=O
recorded-result: 18%

mol-smiles: COc1cc2[nH]c(=S)n(-c3ccc(S(=O)(=O)Nc4ccc(Cl)nn4)cc3)c(=O)c2cc1OC
recorded-result: 10%

mol-smiles: NS(=O)(=O)c1ccc(NC(=O)CSc2nc3ccccc3c(=O)n2-c2ccc(S(=O)(=O)Nc3ccc(Cl)nn3)cc2)cc1
recorded-result: 12%

mol-smiles: O=C(CSc1nc2ccccc2c(=O)n1C1CCCCC1)Nc1ccc(S(=O)(=O)Nc2ccc(Cl)nn2)cc1
recorded-result: 14%

---

- Test system: M14
- procedure-details: cells
- protocol-conditions: Homo sapiens, M14, light or radiation study
# IC50 annotations
test-readout: IC50 (µM)

mol-smiles: O=C(CSc1nc2ccccc2c(=O)n1-c1ccc(S(=O)(=O)Nc2ccc(Cl)nn2)cc1)Nc1ccccc1
uom: µM
recorded-result: 4.76

mol-smiles: COc1cccc2c1C(=O)c1c(O)c3c(c(O)c1C2=O)C[C@@](O)(C(=O)CO)C[C@@H]3O[C@H]1C[C@H](N)[C@H](O)[C@H](C)O1
uom: µM
recorded-result: 2.13

---

# Lookup of reported inhibition of growth at 10 µM keyed by entry
- Tested on: T47D
- procedure-details: Cytotoxicity against human T47D cells assessed as growth inhibition at 10 uM relative to control
- Format: functional
- protocol-conditions: read-out: GI

mol-smiles: O=C(CSc1nc2ccccc2c(=O)n1-c1ccc(S(=O)(=O)Nc2ccc(Cl)nn2)cc1)NCc1ccccc1
inhibition of growth at 10 µM, %: 24
--
mol-smiles: O=C(CSc1nc2ccccc2c(=O)n1C1CCCCC1)Nc1ccc(S(=O)(=O)Nc2ccc(Cl)nn2)cc1
inhibition of growth at 10 µM, %: 12
--
mol-smiles: O=C(CSc1nc2ccccc2c(=O)n1-c1ccc(Cl)c(Cl)c1)Nc1ccc(S(=O)(=O)Nc2ccc(Cl)nn2)cc1
inhibition of growth at 10 µM, %: 14
--
mol-smiles: O=C(CSc1nc2ccccc2c(=O)n1-c1ccc(S(=O)(=O)Nc2ccc(Cl)nn2)cc1)Nc1ccccc1
inhibition of growth at 10 µM, %: 18
--
mol-smiles: O=C(CSc1nc2ccccc2c(=O)n1-c1ccc(S(=O)(=O)Nc2ccc(Cl)nn2)cc1)NCCc1ccccc1
inhibition of growth at 10 µM, %: 27
